# Tested on: Saccharomyces cerevisiae BY4741 SeMeCo community
# runDescription: z-score of subpopulation abundance vs DMSO median, subpopulation auxotrophic for UM; higher = larger share of this subpopulation than in DMSO controls
# runConditions: 10 µM; 24 h; SM minimal medium; subpopulation (auxotrophy): UM
Structures can show the parent of a compound that is named as a salt.
Please go through the items and note down their z-score of subpopulation abundance.

Please review the entries below; each comes with its answer.
- compound: "CC(=O)NS(=O)(=O)c1ccc(N)cc1 [Sulfacetamide Sodium]"
  testedTarget: "Saccharomyces cerevisiae BY4741 SeMeCo community"
  z-score of subpopulation abundance: 0.35
- compound: "N[C@@H]1CCCCN(c2c(F)cc3c(=O)c(C(=O)O)cn(C4CC4)c3c2Cl)C1 [Besifloxacin HCl]"
  testedTarget: "Saccharomyces cerevisiae BY4741 SeMeCo community"
  z-score of subpopulation abundance: -0.28
- compound: "CCN(CC)CC#CCOC(=O)C(O)(c1ccccc1)C1CCCCC1 (stereo not drawn) [Oxybutynin chloride]"
  testedTarget: "Saccharomyces cerevisiae BY4741 SeMeCo community"
  z-score of subpopulation abundance: -1.11
- compound: "CCOC(=O)c1ccc(O)cc1"
  testedTarget: "Saccharomyces cerevisiae BY4741 SeMeCo community"
  z-score of subpopulation abundance: 1.66
- compound: "Fc1ccc(C(c2ccc(F)cc2)N2CCN(C/C=C/c3ccccc3)CC2)cc1 [Flunarizine 2HCl]"
  testedTarget: "Saccharomyces cerevisiae BY4741 SeMeCo community"
  z-score of subpopulation abundance: -0.39

Could I get z-score of subpopulation abundance for every one of these entries?
1. CN1CCN(C2=Nc3cc(Cl)ccc3Nc3ccccc32)CC1
2. CC(C)(C)C(=O)OCOC(=O)[C@@H]1N2C(=O)[C@@H](/N=C/N3CCCCCC3)[C@H]2SC1(C)C [Pivmecillinam hydrochloride]
3. CCCC(=O)OCOC(=O)C1=C(C)NC(C)=C(C(=O)OC)C1c1cccc(Cl)c1Cl (stereo not drawn) [Clevidipine Butyrate]

[0.28, -0.01, -5.87]

----------
# Test system: Saccharomyces cerevisiae BY4741 SeMeCo community
# runDescription: z-score of subpopulation abundance vs DMSO median, subpopulation auxotrophic for HLM; higher = larger share of this subpopulation than in DMSO controls
# runConditions: 10 µM; 24 h; SM minimal medium; subpopulation (auxotrophy): HLM
Structures can show the parent of a compound that is named as a salt.
valueKind: z-score of subpopulation abundance
Numbers only.

- compound: "CC[C@H]1OC(=O)[C@H](C)[C@@H](O[C@H]2C[C@@](C)(OC)[C@@H](O)[C@H](C)O2)[C@H](C)[C@@H](O[C@@H]2O[C@H](C)C[C@H](N(C)C)[C@H]2O)[C@](C)(O)C[C@@H](C)CN(C)[C@H](C)[C@@H](O)[C@]1(C)O [Azithromycin]"
  testedTarget: "Saccharomyces cerevisiae BY4741 SeMeCo community"
  z-score of subpopulation abundance: 0.46
- compound: "COc1ccccc1OCC(O)CN1CCN(CC(=O)Nc2c(C)cccc2C)CC1 (configuration not stated) [Ranolazine]"
  testedTarget: "Saccharomyces cerevisiae BY4741 SeMeCo community"
  z-score of subpopulation abundance: 0.19
- compound: "CC(=O)OCC1=C(C(=O)O)N2C(=O)[C@@H](NC(=O)CSc3ccncc3)[C@H]2SC1"
  testedTarget: "Saccharomyces cerevisiae BY4741 SeMeCo community"
  z-score of subpopulation abundance: 0.47
- compound: "O=C1CN2Cc3c(ccc(Cl)c3Cl)N=C2N1 [Anagrelide HCl]"
  testedTarget: "Saccharomyces cerevisiae BY4741 SeMeCo community"
  z-score of subpopulation abundance: 1.02
- compound: "O=C(O[C@@H]1C[C@@H]2C[C@H]3C[C@H](C1)N2CC3=O)c1c[nH]c2ccccc12 [Dolasetron Mesylate]"
  testedTarget: "Saccharomyces cerevisiae BY4741 SeMeCo community"
  z-score of subpopulation abundance: 0.35
- compound: "Oc1c(Cl)cc(Cl)cc1Sc1cc(Cl)cc(Cl)c1O"
  testedTarget: "Saccharomyces cerevisiae BY4741 SeMeCo community"
  z-score of subpopulation abundance: 4.37

// next item, z-score of subpopulation abundance requested
Sample C[C@@H](O)[C@H]1C(=O)N2C(C(=O)[O-])=C(SC3Cn4cnc[n+]4C3)[C@H](C)[C@H]12 (some centres not stated) — what was its z-score of subpopulation abundance? -0.52

----------
# System: Saccharomyces cerevisiae BY4741 SeMeCo community
# runDescription: z-score of subpopulation abundance vs DMSO median, subpopulation auxotrophic for HM; higher = larger share of this subpopulation than in DMSO controls
# runConditions: 10 µM; 24 h; SM minimal medium; subpopulation (auxotrophy): HM
Structures can show the parent of a compound that is named as a salt.
valueKind: z-score of subpopulation abundance

Please review the entries below; each comes with its answer.
- molecule: "CC1(C)[C@H](C(=O)O)N2C(=O)C[C@H]2S1(=O)=O [Sulbactam sodium]"
  valueKind: "z-score of subpopulation abundance"
  result: 0.23
- molecule: "C[N+]1(C)CCC(=C(c2ccccc2)c2ccccc2)CC1 [Diphemanil Methylsulfate]"
  valueKind: "z-score of subpopulation abundance"
  result: 0.58
- molecule: "COc1cc2c(cc1OC)C(=O)C(CC1CCN(Cc3ccccc3)CC1)C2 (centres undefined) [Donepezil]"
  valueKind: "z-score of subpopulation abundance"
  result: 0.52

// next item, z-score of subpopulation abundance requested
Sample CC1(C)S[C@@H]2[C@H](NC(=O)[C@H](NC(=O)N3CCNC3=O)c3ccccc3)C(=O)N2[C@H]1C(=O)O [Azlocillin sodium salt] — what was its z-score of subpopulation abundance? -0.15

----------
# Test system: Saccharomyces cerevisiae BY4741 SeMeCo community
# runDescription: z-score of subpopulation abundance vs DMSO median, subpopulation auxotrophic for UM; higher = larger share of this subpopulation than in DMSO controls
# runConditions: 10 µM; 24 h; SM minimal medium; subpopulation (auxotrophy): UM
valueKind: z-score of subpopulation abundance
One number for each entry.

Please review the entries below; each comes with its answer.
- molecule: "COc1cc(N)c(Cl)cc1C(=O)NC1CCN(CCCOc2ccc(F)cc2)CC1OC (centres undefined) [Cisapride]"
  testedTarget: "Saccharomyces cerevisiae BY4741 SeMeCo community"
  quantitativeResult: -0.35
- molecule: "Nc1ccc2cc3ccc(N)cc3nc2c1 [Proflavine Hemisulfate]"
  testedTarget: "Saccharomyces cerevisiae BY4741 SeMeCo community"
  quantitativeResult: -8.07
- molecule: "C=CC1=C(C(=O)O)N2C(=O)[C@@H](NC(=O)/C(=N\\OCC(=O)O)c3csc(N)n3)[C@H]2SC1"
  testedTarget: "Saccharomyces cerevisiae BY4741 SeMeCo community"
  quantitativeResult: -0.25
- molecule: "Cc1nnc(SCC2=C(C(=O)O)N3C(=O)[C@@H](NC(=O)Cn4cnnn4)[C@H]3SC2)s1 [Cefazolin Sodium]"
  testedTarget: "Saccharomyces cerevisiae BY4741 SeMeCo community"
  quantitativeResult: 0.25
- molecule: "COc1ccc2c(c1)c(CC(=O)O)c(C)n2C(=O)c1ccc(Cl)cc1"
  testedTarget: "Saccharomyces cerevisiae BY4741 SeMeCo community"
  quantitativeResult: 1.08
- molecule: "CCN1CCN(c2cc3c(cc2F)c(=O)c(C(=O)O)cn3C2CC2)CC1"
  testedTarget: "Saccharomyces cerevisiae BY4741 SeMeCo community"
  quantitativeResult: 0
- molecule: "O=C(O)CCNC(=O)c1ccccc1"
  testedTarget: "Saccharomyces cerevisiae BY4741 SeMeCo community"
  quantitativeResult: 0.43
- molecule: "C[C@H]1NCc2cc(-c3ccc4c(=O)c(C(=O)O)cn(C5CC5)c4c3OC(F)F)ccc21"
  testedTarget: "Saccharomyces cerevisiae BY4741 SeMeCo community"
  quantitativeResult: -0.07

// next item, z-score of subpopulation abundance requested
Sample CCOC(=O)C1=C(COCCN)NC(C)=C(C(=O)OC)C1c1ccccc1Cl (centres undefined) [Amlodipine Besylate] — what was its z-score of subpopulation abundance? -8.17

----------
Please go through the items and note down their z-score of subpopulation abundance.
# Test system: Saccharomyces cerevisiae BY4741 SeMeCo community
# runDescription: z-score of subpopulation abundance vs DMSO median, subpopulation auxotrophic for H; higher = larger share of this subpopulation than in DMSO controls
# runConditions: 10 µM; 24 h; SM minimal medium; subpopulation (auxotrophy): H
Counter-ions that a name gives are not always drawn.
One number for each entry.

Please review the entries below; each comes with its answer.
- molecule: "CC#C[C@]1(O)CC[C@H]2[C@@H]3CCC4=CC(=O)CCC4=C3[C@@H](c3ccc(N(C)C)cc3)C[C@@]21C"
  z-score of subpopulation abundance: 1.2
- molecule: "COc1cc([C@@H]2c3cc4c(cc3[C@@H](O[C@@H]3O[C@@H]5CO[C@@H](c6cccs6)O[C@H]5[C@H](O)[C@H]3O)[C@H]3COC(=O)[C@H]23)OCO4)cc(OC)c1O [Teniposide]"
  z-score of subpopulation abundance: 0.91
- molecule: "C=CC(C)(O)CCC=C(C)C (centres undefined)"
  z-score of subpopulation abundance: -0.37
- molecule: "C=C[C@]1(C)C[C@@H](OC(=O)CS[C@@H]2C[C@H]3CC[C@@H](C2)N3C)[C@]2(C)[C@H](C)CC[C@]3(CCC(=O)[C@H]32)[C@@H](C)[C@@H]1O"
  z-score of subpopulation abundance: -0.84
- molecule: "CCCCOc1cc(C(=O)OCCN(CC)CC)ccc1N [Oxybuprocaine HCl]"
  z-score of subpopulation abundance: -0.22

Could I get z-score of subpopulation abundance for every one of these entries?
1. CCn1cc(C(=O)O)c(=O)c2cc(F)c(N3CCN(C)CC3)cc21 [Pefloxacin Mesylate Dihydrate]
2. CN(C)CCc1c[nH]c2ccc(C[C@H]3COC(=O)N3)cc12

1. 0.39
2. -0.77

Could I get z-score of subpopulation abundance for every one of these entries?
1. CN(C)CC(c1ccc(O)cc1)C1(O)CCCCC1 (centres undefined)
2. CCOC(=O)C1=C(COCCN)NC(C)=C(C(=O)OC)C1c1ccccc1Cl (centres undefined) [Amlodipine]
3. Nc1ccc(S(N)(=O)=O)cc1 [Sulfanilamide]
4. Cc1ccc(-c2cc(C(F)(F)F)nn2-c2ccc(S(N)(=O)=O)cc2)cc1

1. -0.84
2. 3.95
3. -0.45
4. 0.01

Could I get z-score of subpopulation abundance for every one of these entries?
1. O=C(O)CCCCCCCC(=O)O
2. CC[C@H]1OC(=O)C[C@@H](O)[C@H](C)[C@@H](O[C@@H]2O[C@H](C)[C@@H](O)[C@H](N(C)C)[C@H]2O)[C@@H](CCN2C[C@H](C)C[C@H](C)C2)C[C@@H](C)C(=O)/C=C/C(C)=C/[C@@H]1CO[C@@H]1O[C@H](C)[C@@H](O)[C@@H](OC)[C@H]1OC [Tilmicosin]
3. CC[C@H]1OC(=O)[C@H](C)[C@@H](O[C@H]2C[C@@](C)(OC)[C@@H](O)[C@H](C)O2)[C@H](C)[C@@H](O[C@@H]2O[C@H](C)C[C@H](N(C)C)[C@H]2O)[C@](C)(O)C[C@@H](C)CN(C)[C@H](C)[C@@H](O)[C@]1(C)O [Azithromycin Dihydrate]

1. 0.43
2. 0.98
3. 0.7
